Numbers sourced from PubChem BioAssay (NCI).

- System: MCF7 breast
- Experimental Protocol: NCI tumour cell line growth inhibition, 48 h
Measure: GI50

For each of the molecules below, note its GI50.
1. Cn1ccnc1C(=O)/C=C/c1ccc(CC(=O)Nc2ccc(Br)cc2)cc1
2. CC1=C(C#N)C23C(=O)c4ccccc4C(O)=C2C(=O)C=CC3(O)N1Cc1ccccc1 (stereo not given)

## Output
1.84 µM
41.6 µM

For each of the molecules below, note its GI50.
1. C[C@@H](CS(C)(=O)=O)Nc1ncc2cc(Oc3ccc(F)cc3F)c(=O)n(C)c2n1
2. CCc1ccc2c(c1)C(=O)c1c-2n(CCCBr)c(=O)c2cc([N+](=O)[O-])ccc12
3. NC(CSC(c1ccccc1)(c1ccccc1)c1ccc2c(c1)OCO2)C(=O)O (stereo not given)

## Output
["> 25 µM", "19.9 µM", "0.298 µM"]

====

- System: K-562 leukemia
- Experimental Protocol: NCI tumour cell line growth inhibition, 48 h
Would you mind telling me the reported TGI of each entry?
Answers are plain numbers, in µM.

Known TGI results, listed for orientation:
CC(C)c1ccc(C(C)C(=O)N(CC2=C(C(C)c3ccccn3)c3ccccc3C2)C(C)C)cc1 (configuration not stated)    15
CN(C)c1ccc(C2CC(c3ccc4ccccc4c3O)=NN2)cc1 (configuration not stated)    90.2
CN(C)CCCN1c2ccc([N+](=O)[O-])cc2CCc2cccc([N+](=O)[O-])c21    52
CN(C)CCCNC1=C(Cl)C(=O)c2ccccc2C1=O    6.03
O=C(/C=C/c1ccccc1Cl)c1ccc(Cl)c(Cl)c1    67.9

Note: attention shifts to another entry.
## Input Input `O=C(CCl)N1c2ccccc2Oc2ccc3ccccc3c21` , output reported TGI.
## Output 1.42

====

- System: IGROV1 ovarian
- Experimental Protocol: NCI tumour cell line growth inhibition, 48 h
Measure: TGI

For each of the compounds below, note its TGI.
1. CCOC(=O)c1c(SC(=O)c2ccc(C(C)(C)C)cc2)n(-c2ccccc2)c(=S)n(-c2ccccc2)c1=O
2. O[C@H]1[C@H]2c3cc4c(cc3CN3CCC(=C[C@@H]1O)[C@H]23)OCO4
3. O=C1NC(N/N=C/C(O)C(O)C(O)C(O)CO)=N/C1=C\c1ccco1 (stereo not drawn)
4. CCCCCCNC(=O)C(C)C1CCC2(C)C=CC(=O)C(C)=C2C1O (stereo not drawn)
5. Cc1sc(Nc2ccc(Nc3nc(-c4ccccc4)c(C)s3)cc2)nc1-c1ccccc1
6. Cn1c2ccc([N+](=O)[O-])cc2c(=O)n1Cc1ccccc1F
7. CC1CN1P1(N2CC2C)=NP(N2CC2C)(N2CC2C)=NP(N2CC2C)(N2CC2C)=N1 (stereo not drawn)
8. FC(F)(F)c1ccc(C2SCc3nc4ccccc4n32)cc1 (stereo not drawn)

## Output
> 100 µM
0.874 µM
> 100 µM
> 100 µM
> 100 µM
> 100 µM
> 50 µM
> 100 µM

====

Would you mind telling me the reported TGI of each entry?
- System: DLD-1 colon
- Experimental Protocol: NCI tumour cell line growth inhibition, 48 h
Answers are plain numbers, in µM.

CC(C)=CCCc1c(C)ccc2c1C(=O)C(=O)C(C(C)C)=C2    6.51

Note: attention shifts to another entry.
## Input Provide DLD-1 colon TGI reading for `Cc1nc2c(nc1C)C(=O)c1ccccc1C2=O` .
## Output 47.9

====

- Test system: NCI/ADR-RES ovarian
- Experimental Protocol: NCI tumour cell line growth inhibition, 48 h
Measure: TGI

COc1ccc2c(c1)C(=O)/C(=C/c1ccc(OCC(=O)Nc3nccs3)cc1)O2    > 100 µM
Cn1ccnc1C(=O)/C=C/c1ccc(CC(=O)Nc2ccc(Br)cc2)cc1    > 16.7 µM
CNC(=O)c1ccccc1Nc1nc(Nc2ccc(N3CCOCC3)cc2OC)ncc1Cl    > 50.7 µM
COC(=O)[C@@H](C)C[C@H](Cc1ccc(F)cc1)NC(=O)c1csc([C@@H](C[C@H](C(C)C)N(C)C(=O)[C@@H](NC(=O)[C@H]2CCCCN2C)C(C)C)OC(C)=O)n1    > 16.7 µM
CSc1ccccc1C#C/C=C\C#Cc1ccccc1N1CCCC1=O    > 19.9 µM

For each of the molecules below, note its TGI.
1. O=C(C1OC1c1ccc(Cl)cc1)C12CC3CC(CC(C3)C1)C2 (stereo not drawn)
2. CN(C)CCCN1c2ccc([N+](=O)[O-])cc2CCc2cccc([N+](=O)[O-])c21
3. NC1CCC(Nc2nc(NCc3ccc(-c4ccco4)nc3)c3ncn(C4CCCC4)c3n2)CC1 (stereo not drawn)

## Output
1. 49 µM
2. 30.4 µM
3. 1.39 µM

For each of the molecules below, note its TGI.
1. CC(=O)Nc1oc(C)c(C)c1S(=O)(=O)c1ccc(Cl)cc1
2. C=CCC1(O)CC(n2cc(C)c(=O)[nH]c2=O)OC1CO[Si](C)(C)C(C)(C)C (stereo not drawn)

## Output
1. > 100 µM
2. > 100 µM

For each of the molecules below, note its TGI.
1. O=C1N(C2CCCCC2)C(=O)N1C1CCCCC1
2. CO[C@]1(c2ccc([N+](=O)[O-])cc2)Oc2ccccc2C(=O)[C@@]1(Nc1ccc(C=O)cc1)OC
3. O=C(CN1CCN(c2cc3c(cc2F)c(=O)c(C(=O)N/N=C/c2ccccc2O)cn3C2CC2)CC1)N/N=C\c1ccccc1O

## Output
1. 14.9 µM
2. > 10 µM
3. > 100 µM

====

- System: SF-268 CNS
- Experimental Protocol: NCI tumour cell line growth inhibition, 48 h
Measure: TGI

Known TGI results, listed for orientation:
COc1ccc(-c2cc(-c3ccc(Nc4nc(Nc5ccccc5)nc(Nc5ccc(Cl)cc5)n4)cc3)nc(N)c2C#N)cc1    2.49 µM
O=C(/C=C/c1ccccc1Cl)c1ccc(Cl)c(Cl)c1    33.7 µM
CC1(C)CCc2ccc(OCCC(=O)O)cc2O1    > 100 µM
O=C(Nc1ccccc1)OCCN=C1c2ccccc2C(Br)C(Br)c2ccccc21 (centres undefined)    15.6 µM
S=c1nc2sc3c(c2c(Nc2ccc(Cl)cc2)[nH]1)CCCC3    > 100 µM

For each of the molecules below, note its TGI.
1. CSCCCN(CCCSC)CCCSC
2. CS(=O)(=O)OCCCCOS(=O)(=O)CF

## Output
> 100 µM
> 100 µM

For each of the molecules below, note its TGI.
1. CCOC(=O)c1ncn2c1[nH]c(=S)c1ccccc12
2. COc1ccc(/C=c2/sc3n(c2=O)C(c2ccccc2)C2(O)CCCCC2N=3)cc1 (centres undefined)
3. O=C(N/C(=C\c1cc(Cl)ccc1Cl)c1nc2[nH]c(=S)[nH]c(=O)c2[nH]1)c1ccccc1
4. CCCCCCCCSC1=CC(=O)c2nc3ccccc3c3ccnc1c23
5. NC(=O)C(=CNC(N)=S)C(N)=O
6. CSc1ccc(/C=C2\CN(C)C/C(=C\c3ccc(SC)cc3)C2=O)cc1
7. COc1cc(C(=O)/C=C/c2sc(Cl)nc2Cl)cc(OC)c1OC

## Output
["> 100 µM", "> 12.5 µM", "> 100 µM", "> 100 µM", "> 100 µM", "> 100 µM", "3.77 µM"]

====

- System: HS 578T breast
- Experimental Protocol: NCI tumour cell line growth inhibition, 48 h
Would you mind telling me the reported TGI of each entry?
Give bare numbers, in µM.

Known TGI results, listed for orientation:
CC(C)c1ccc(C(C)C(=O)N(CC2=C(C(C)c3ccccn3)c3ccccc3C2)C(C)C)cc1 (stereo not drawn)    13.6
CCOc1ccccc1-n1c(CN2CCN(C(=O)COc3ccc(CNCCCCCCN4C5CCCC4CC(OC(=O)Nc4cc(C)ccc4OC)C5)cc3)CC2)nc2ccccc2c1=O (stereo not drawn)    3.94
COc1cc2nc(C)nc(N[C@H](C)c3cc(N)cc(C(F)(F)F)c3)c2cc1O[C@H]1CCOC1    38.9
Cc1ccc(N=N/C(=N/NC(=O)c2cc(Cl)ccc2O)c2ccc(N(CCC#N)CCC#N)cc2C)cc1    46.4
CN(C)CCNc1ccc([N+](=O)[O-])c2sc3ccccc3c(=O)c12    38.8

Note: attention shifts to another entry.
## Input Input Cc1cnc(NC(=O)C(Cc2ccccc2)NC(=O)c2ccccc2)s1 (stereo not drawn) , output reported TGI.
## Output 35.3

====

Would you mind telling me the reported TGI of each entry?
- System: SN12C renal
- Experimental Protocol: NCI tumour cell line growth inhibition, 48 h

Known TGI results, listed for orientation:
CCCCS(=O)(=O)CCC(N)P(=O)(O)O (stereo not given)    > 100 µM
C=CCc1cc(OC)c2c(c1)C(O)CC(c1ccc(OC)c(OC)c1)O2 (stereo not given)    > 100 µM
COc1ccccc1CCN1CCN(CCCc2ccccc2)CC1    > 100 µM
Cc1cnc(NC(=O)C(Cc2ccccc2)NC(=O)c2ccccc2)s1 (stereo not given)    17.5 µM

Note: attention shifts to another entry.
## Input Input NS(=O)(=O)c1ccccc1C(=O)N/N=C(\c1nc2ccc([N+](=O)[O-])cc2[nH]c1=O)C(O)c1ccc([N+](=O)[O-])cc1 (stereo not given) , output reported TGI.
## Output > 100 µM
